Data origin, for the record: paper PMC11211886

- System: CYP2C9
- Assay: in vitro
- Condition Label: male, human, Enzyme activity Fold Induction
Measurement Label: fold induction at 48 h, 25 µM
Answer field: number only, no words.

So what fold induction at 48 h, 25 µM did CCOC(=O)c1ncn2c1CN(C)C(=O)c1cc(F)ccc1-2 get with CYP2C9? 1.05

----------
- Study System: OATP1B3 (Homo sapiens, UniProt Q9NPD5)
- Sequence (Q9NPD5 whole entry): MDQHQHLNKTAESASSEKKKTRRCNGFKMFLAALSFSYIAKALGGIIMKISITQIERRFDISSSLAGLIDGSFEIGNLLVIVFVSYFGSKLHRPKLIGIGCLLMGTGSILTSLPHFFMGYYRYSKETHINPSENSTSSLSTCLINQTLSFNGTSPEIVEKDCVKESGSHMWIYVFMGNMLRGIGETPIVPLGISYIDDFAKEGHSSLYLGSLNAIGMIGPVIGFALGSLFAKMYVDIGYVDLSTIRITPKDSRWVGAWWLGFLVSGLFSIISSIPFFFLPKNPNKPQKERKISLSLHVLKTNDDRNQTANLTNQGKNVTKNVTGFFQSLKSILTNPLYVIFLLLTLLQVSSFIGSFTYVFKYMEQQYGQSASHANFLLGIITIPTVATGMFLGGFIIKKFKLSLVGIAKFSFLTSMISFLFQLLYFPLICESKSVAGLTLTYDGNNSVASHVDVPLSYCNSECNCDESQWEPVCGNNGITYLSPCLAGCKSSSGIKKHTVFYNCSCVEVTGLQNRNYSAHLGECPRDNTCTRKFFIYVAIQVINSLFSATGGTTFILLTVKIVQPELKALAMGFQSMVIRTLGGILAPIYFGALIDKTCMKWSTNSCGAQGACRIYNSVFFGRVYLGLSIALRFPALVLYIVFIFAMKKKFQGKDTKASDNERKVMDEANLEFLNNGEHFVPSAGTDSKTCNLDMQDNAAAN
- Assay: in vitro
- Condition Label: human, pH 7.4
Measurement Label: inhibition at 5 min, 0.3 µM

Looking for the measured inhibition at 5 min, 0.3 µM of C[C@H](Nc1ncnc(N)c1C#N)c1cc2ncc(Cl)n2nc1-c1ccccc1 , can you help? 5.47%
